- SYSTEM: recombinant human KLK5 (human) (UniProt Q9Y337)
- Sequence (Q9Y337 67-293): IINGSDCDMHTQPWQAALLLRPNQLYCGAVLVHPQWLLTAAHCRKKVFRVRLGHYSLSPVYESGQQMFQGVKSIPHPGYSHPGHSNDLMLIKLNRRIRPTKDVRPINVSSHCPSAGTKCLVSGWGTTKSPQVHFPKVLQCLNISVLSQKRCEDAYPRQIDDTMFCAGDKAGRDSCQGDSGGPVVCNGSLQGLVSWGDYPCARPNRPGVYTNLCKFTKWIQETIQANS
- ASSAY_OVERVIEW: Kiapp, KLK5 0.5-0.0625 nM, Z-VPR-pNA
Field: Ki. Provide a value for each of the binders that follow.
Your answer should be a plain number; it is taken to be in nM.

IN: Form field: reported Ki of 10C8 (antibody, V domains shown) VH: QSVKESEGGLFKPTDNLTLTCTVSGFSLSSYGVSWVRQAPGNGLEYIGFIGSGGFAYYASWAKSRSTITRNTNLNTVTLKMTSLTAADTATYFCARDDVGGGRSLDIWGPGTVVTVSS VL: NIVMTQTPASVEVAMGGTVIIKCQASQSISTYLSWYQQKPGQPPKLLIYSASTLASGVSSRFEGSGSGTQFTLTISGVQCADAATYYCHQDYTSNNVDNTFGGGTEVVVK
OUT: 0.265

IN: Form field: reported Ki of 8F5 (antibody, V domains shown) VH: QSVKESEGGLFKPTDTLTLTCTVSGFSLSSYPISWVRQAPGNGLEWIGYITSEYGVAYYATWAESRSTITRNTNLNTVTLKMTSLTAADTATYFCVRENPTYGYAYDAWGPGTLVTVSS VL: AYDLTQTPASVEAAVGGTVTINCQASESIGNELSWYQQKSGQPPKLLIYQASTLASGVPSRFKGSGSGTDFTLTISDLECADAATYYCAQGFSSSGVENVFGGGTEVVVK
OUT: 1.91

IN: Form field: reported Ki of 10C5 (antibody, V domains shown) VH: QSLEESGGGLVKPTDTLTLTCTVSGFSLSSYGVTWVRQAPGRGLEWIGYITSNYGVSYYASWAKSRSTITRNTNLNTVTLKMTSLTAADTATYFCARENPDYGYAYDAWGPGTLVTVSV VL: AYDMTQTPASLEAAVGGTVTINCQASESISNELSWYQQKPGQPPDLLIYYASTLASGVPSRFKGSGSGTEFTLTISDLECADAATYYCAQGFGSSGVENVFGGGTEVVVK
OUT: 0.15
